The measured values listed here are drawn from ChEMBL document CHEMBL4665713.

# MEASURED ON: UniProt P37136
# PROCEDURE TEXT: Inhibition of AChE in rat brain using acetylthiocholine iodide as substrate by Ellman's UV-vis spectrophotometric method
# Assay type: tissue-based
Quick reference for IC50 among some compounds
MEASURED METRIC: IC50 (µM)

RECORD SMILES	VALUE MODIFIER	OBSERVED RESULT
CN1CCN(c2ncnc3ccc(OCc4cn(-c5cccc([N+](=O)[O-])c5)nn4)cc23)CC1	=	15.8
O=[N+]([O-])c1ccc(-n2cc(COc3ccc4ncnc(NCc5ccccc5)c4c3)nn2)cc1	>	200
N#Cc1cc(-n2cc(COc3ccc4ncnc(NCc5ccccc5)c4c3)nn2)ccc1C(F)(F)F	>	200
C#CCOc1ccc2ncnc(N3CCN(C)CC3)c2c1	=	83.9
CN1CCN(c2ncnc3ccc(OCc4cn(-c5ccc([N+](=O)[O-])cc5)nn4)cc23)CC1	>	200
O=[N+]([O-])c1ccc(-n2cc(COc3ccc4ncnc(Nc5cccc([N+](=O)[O-])c5)c4c3)nn2)cc1	>	200
N#Cc1cc(-n2cc(COc3ccc4ncnc(Nc5cccc([N+](=O)[O-])c5)c4c3)nn2)ccc1C(F)(F)F	>	200
O=[N+]([O-])c1ccccc1-n1cc(COc2ccc3ncnc(NCc4ccccc4)c3c2)nn1	=	0.23
O=[N+]([O-])c1cccc(Nc2ncnc3ccc(OCc4cn(-c5ccccc5[N+](=O)[O-])nn4)cc23)c1	=	2.06
CN1CCN(c2ncnc3ccc(OCc4cn(-c5ccc(C(F)(F)F)c(C#N)c5)nn4)cc23)CC1	>	200

###

# Test system: HepG2
# PROCEDURE TEXT: Cytotoxicity against human HepG2 cells assessed as reduction in cell viability by MTT assay
# Format: functional, cell-based
Quick reference for IC50 among some molecules

RECORD SMILES	IC50
CN1CCN(c2ncnc3ccc(OCc4cn(-c5ccccc5[N+](=O)[O-])nn4)cc23)CC1	142 µM
O=[N+]([O-])c1cccc(-n2cc(COc3ccc4ncnc(NCc5ccccc5)c4c3)nn2)c1	94.1 µM
Cc1c2ccncc2c(C)c2c1[nH]c1ccccc12	0.85 µM
C#CCOc1ccc2ncnc(N3CCN(C)CC3)c2c1	> 200 µM
C#CCOc1ccc2ncnc(NCc3ccccc3)c2c1	> 200 µM
O=[N+]([O-])c1ccccc1-n1cc(COc2ccc3ncnc(NCc4ccccc4)c3c2)nn1	> 200 µM
CN1CCN(c2ncnc3ccc(OCc4cn(-c5cccc([N+](=O)[O-])c5)nn4)cc23)CC1	> 200 µM
O=[N+]([O-])c1cccc(Nc2ncnc3ccc(OCc4cn(-c5ccccc5[N+](=O)[O-])nn4)cc23)c1	> 200 µM

###

Quick reference for pIC50 among some molecules
# MEASURED ON: Acetylcholinesterase (Rattus norvegicus, UniProt P37136)
# Sequence (P37136 whole entry): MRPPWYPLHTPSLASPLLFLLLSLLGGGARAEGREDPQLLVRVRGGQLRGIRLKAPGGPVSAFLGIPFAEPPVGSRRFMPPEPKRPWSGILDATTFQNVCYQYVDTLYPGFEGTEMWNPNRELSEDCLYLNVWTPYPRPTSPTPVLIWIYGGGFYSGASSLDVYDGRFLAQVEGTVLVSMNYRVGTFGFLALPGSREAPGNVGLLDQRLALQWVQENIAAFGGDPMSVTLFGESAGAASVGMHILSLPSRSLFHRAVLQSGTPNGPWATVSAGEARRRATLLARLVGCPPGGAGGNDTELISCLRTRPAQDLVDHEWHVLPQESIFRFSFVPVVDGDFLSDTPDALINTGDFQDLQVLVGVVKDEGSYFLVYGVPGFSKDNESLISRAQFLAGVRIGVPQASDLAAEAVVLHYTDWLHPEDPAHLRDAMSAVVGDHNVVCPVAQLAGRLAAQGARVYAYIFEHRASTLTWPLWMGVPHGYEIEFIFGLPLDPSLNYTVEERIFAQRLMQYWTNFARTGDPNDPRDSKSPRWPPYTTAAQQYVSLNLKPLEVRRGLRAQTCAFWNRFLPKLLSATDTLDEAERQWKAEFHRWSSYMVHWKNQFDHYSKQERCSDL
pIC50: −log10 of the molar value.

RECORD SMILES	VALUE MODIFIER	pIC50
C#CCOc1ccc2ncnc(Nc3cccc([N+](=O)[O-])c3)c2c1	<	3.70
CN1CCN(c2ncnc3ccc(OCc4cn(-c5ccccc5[N+](=O)[O-])nn4)cc23)CC1	=	4.43
C#CCOc1ccc2ncnc(NCc3ccccc3)c2c1	=	4.32
O=[N+]([O-])c1cccc(-n2cc(COc3ccc4ncnc(NCc5ccccc5)c4c3)nn2)c1	=	5.96
O=[N+]([O-])c1cccc(Nc2ncnc3ccc(OCc4cn(-c5cccc([N+](=O)[O-])c5)nn4)cc23)c1	<	3.70
